System: VERPE
Test: Pre-emergence herbicidal action against VERPE
Type: in vivo, Veronica persica
Settings: 320 g/ha
// values below are reported Pre-emergence action against VERPE in %
Parameter: Pre-emergence action against VERPE in %

>>> print(df.to_string())
                                    compound                                parameter  measured_value
 0  C#CCOCC1CCC2(C1)NC(=O)C(c1c(C)cc(C#CC)cc1Cl)=C2O (centres unmarked) [Example I-79]  Pre-emergence action against VERPE in %             80%
 1  CC#Cc1cc(C)c(C2=C(OC(=O)OCC)C3(CCC(COCC)C3)NC2=O)c(OC)c1 (centres unmarked) [Example P-49]  Pre-emergence action against VERPE in %             80%
 2  CC#Cc1cc(Cl)c(C2=C(OC(=O)OCC)C3(CCC(COC)C3)NC2=O)c(OC)c1 (centres unmarked) [Example P-97]  Pre-emergence action against VERPE in %            100%
 3  C#CCOCC1CCC2(C1)NC(=O)C(c1c(C)cc(C#CC)cc1Cl)=C2OC(=O)OCC (centres unmarked) [Example P-100]  Pre-emergence action against VERPE in %             90%
 4  CC#Cc1cc(Br)c(C2=C(O)C3(CCC(COCC)C3)NC2=O)c(CC)c1 (centres unmarked)  Pre-emergence action against VERPE in %             80%
 5  CC#Cc1cc(C)c(C2=C(O)C3(CCC(COCCOC)C3)NC2=O)c(Cl)c1 (centres unmarked)  Pre-emergence action against VERPE in %            100%
 6  C=CCOCC1CCC2(C1)NC(=O)C(c1c(C)cc(C#CC)cc1Br)=C2OC(=O)OCC (centres unmarked) [Example P-88]  Pre-emergence action against VERPE in %            100%
 7  CC#Cc1cc(C)c(C2=C(OC(=O)OCC)C3(CCC(COCCC)C3)NC2=O)c(OC)c1 (centres unmarked) [Example P-83]  Pre-emergence action against VERPE in %             80%
 8  CC#Cc1cc(C)c(C2=C(OC(=O)OCC)C3(CCC(COCC)C3)NC2=O)c(Br)c1 (centres unmarked) [Example P-35]  Pre-emergence action against VERPE in %             80%
 9  C#CCOCC1CCC2(C1)NC(=O)C(c1c(C)cc(C#CC)cc1OC)=C2OC(=O)OCC (centres unmarked)  Pre-emergence action against VERPE in %             90%
10  C#CCOCC1CCC2(C1)NC(=O)C(c1c(C)cc(C#CC)cc1Cl)=C2O (centres unmarked) [Example I-78]  Pre-emergence action against VERPE in %             90%
11  CC#Cc1cc(C)c(C2=C(OC(=O)C(C)C)C3(CCC(COCC)C3)NC2=O)c(Cl)c1 (centres unmarked)  Pre-emergence action against VERPE in %            100%
12  CC#Cc1cc(Br)c(C2=C(OC(=O)C(C)C)C3(CCC(COC)C3)NC2=O)c(OC)c1 (centres unmarked)  Pre-emergence action against VERPE in %             90%
13  CC#Cc1cc(C)c(C2=C(OC(=O)OCC)C3(CCC(COCCOC)C3)NC2=O)c(OC)c1 (centres unmarked) [Example P-80]  Pre-emergence action against VERPE in %            100%
14  CC#Cc1cc(Br)c(C2=C(O)C3(CCC(COC)C3)NC2=O)c(OC)c1 (centres unmarked)  Pre-emergence action against VERPE in %            100%
15  C=CCOCC1CCC2(C1)NC(=O)C(c1c(C)cc(C#CC)cc1Cl)=C2O (centres unmarked)  Pre-emergence action against VERPE in %             80%
16  CC#Cc1cc(C)c(C2=C(OC(=O)OCC)C3(CCC(COCC)C3)NC2=O)c(Br)c1 (centres unmarked) [Example P-34]  Pre-emergence action against VERPE in %             80%
17  CC#Cc1cc(Cl)c(C2=C(OC(=O)OCC)C3(CCC(COC)C3)NC2=O)c(OC)c1 (centres unmarked) [Example P-98]  Pre-emergence action against VERPE in %            100%
18  CC#Cc1cc(C)c(C2=C(OC(=O)C(C)C)C3(CCC(COC)C3)NC2=O)c(Br)c1 (centres unmarked) [Example P-33]  Pre-emergence action against VERPE in %             80%
19  C=CCOCC1CCC2(C1)NC(=O)C(c1c(F)cc(C#CC)cc1OC)=C2OC(=O)OCC (centres unmarked)  Pre-emergence action against VERPE in %             80%
20  CC#Cc1cc(C)c(C2=C(O)C3(CCC(COCC)C3)NC2=O)c(Cl)c1 (centres unmarked) [Example I-17]  Pre-emergence action against VERPE in %             90%
21  CC#Cc1cc(C)c(C2=C(OC(=O)OCC)C3(CCC(COCC)C3)NC2=O)c(Cl)c1 (centres unmarked)  Pre-emergence action against VERPE in %            100%
22  CC#Cc1cc(Br)c(C2=C(O)C3(CCC(COC)C3)NC2=O)c(OCC)c1 (centres unmarked)  Pre-emergence action against VERPE in %             80%
23  CC#Cc1cc(Br)c(C2=C(OC(=O)OCC)C3(CCC(COC)C3)NC2=O)c(OC)c1 (centres unmarked)  Pre-emergence action against VERPE in %             90%
24  CC#Cc1cc(C)c(C2=C(OC(=O)OCC)C3(CCC(COCCOC)C3)NC2=O)c(Cl)c1 (centres unmarked) [Example P-76]  Pre-emergence action against VERPE in %            100%
25  CC#Cc1cc(C)c(C2=C(OC(=O)OCC)C3(CCC(COCCC)C3)NC2=O)c(OC)c1 (centres unmarked) [Example P-81]  Pre-emergence action against VERPE in %             90%
26  CC#Cc1cc(Br)c(C2=C(OC(=O)OCC)C3(CCC(COCC)C3)NC2=O)c(OC)c1 (centres unmarked) [Example P-05]  Pre-emergence action against VERPE in %             80%
27  CC#Cc1cc(C)c(C2=C(O)C3(CCC(COCC)C3)NC2=O)c(Cl)c1 (centres unmarked) [Example I-02]  Pre-emergence action against VERPE in %             90%
28  C#CCOCC1CCC2(C1)NC(=O)C(c1c(C)cc(C#CC)cc1Cl)=C2OC(=O)OCC (centres unmarked) [Example P-99]  Pre-emergence action against VERPE in %            100%
29  CC#Cc1cc(F)c(C2=C(OC(=O)C(C)C)C3(CCC(COCC)C3)NC2=O)c(OC)c1 (centres unmarked)  Pre-emergence action against VERPE in %             80%
30  CC#Cc1cc(Br)c(C2=C(OC(=O)OCC)C3(CCC(COCC)C3)NC2=O)c(OC)c1 (centres unmarked) [Example P-01]  Pre-emergence action against VERPE in %            100%
31  CC#Cc1cc(C)c(C2=C(OC(=O)OCC)C3(CCC(COC)C3)NC2=O)c(Br)c1 (centres unmarked) [Example P-30]  Pre-emergence action against VERPE in %             80%
